# TEST_DETAILS: polyglutamine-triggered caspase-3 activation inhibitors, cell-based (AID 1583)
# RUN_CONDITIONS: polyglutamine-induced caspase-3 activation, cell assay; stronger effect = higher value;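 tested at 10 µM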
Label rule, in plain words: inhibition of 10% and up is Yes, under 10% is No.

Task item: Does the molecule `C[C@H](N)[C@H](O)c1ccc(O)c(O)c1` have recorded inhibition that is 10% or more?
Reply: No

More entries:
Task item: Does the molecule CC(C)(C)NCC(O)c1ccccc1Cl (configuration not stated) have recorded inhibition that is 10% or more?
Reply: No

Task item: Does the molecule `COc1ccc(C[C@H]2NC[C@H](O)[C@H]2OC(C)=O)cc1` have recorded inhibition that is 10% or more?
Reply: Yes

Task item: Does the molecule CCCC(C)(COC(N)=O)COC(=O)NC(C)C (configuration not stated) have recorded inhibition that is 10% or more?
Reply: Yes

Task item: Does the molecule `COc1cc(CCN)cc(OC)c1OC` have recorded inhibition that is 10% or more?
Reply: No

Task item: Does the molecule `CC[n+]1c(-c2ccccc2)c2cc(N)ccc2c2ccc(N)cc21` have recorded inhibition that is 10% or more?
Reply: Yes

Task item: Does the molecule CCOC(=O)C1C(OC(=O)c2ccccc2)CC2CCC1N2C (configuration not stated) have recorded inhibition that is 10% or more?
Reply: No

Task item: Does the molecule `C[C@H]1C(=O)O[C@@H]2CCN3CC=C(COC(=O)[C@](C)(O)[C@]1(C)O)[C@H]23` have recorded inhibition that is 10% or more?
Reply: Yes

Task item: Does the molecule `C[C@@H]1C[C@@H]([C@H](O)CC2CC(=O)NC(=O)C2)C(=O)[C@@H](C)C1` have recorded inhibition that is 10% or more?
Reply: Yes

Task item: Does the molecule CC(N)Cc1ccccc1 (configuration not stated) have recorded inhibition that is 10% or more?
Reply: Yes

Task item: Does the molecule `COc1ccc(C(=O)N2CCCC2=O)cc1` have recorded inhibition that is 10% or more?
Reply: Yes

Task item: Does the molecule CC(C)N(CCC(C(N)=O)(c1ccccc1)c1ccccn1)C(C)C (configuration not stated) have recorded inhibition that is 10% or more?
Reply: No
